EXPERIMENTAL TARGET: T1, human CD177 (human, UniProt Q8N6Q3 22-408)
T1 construct: whole, on cells; On circulating human neutrophils of donors and patients; also called CD177 (on human neutrophils)
T1 sequence (looked up): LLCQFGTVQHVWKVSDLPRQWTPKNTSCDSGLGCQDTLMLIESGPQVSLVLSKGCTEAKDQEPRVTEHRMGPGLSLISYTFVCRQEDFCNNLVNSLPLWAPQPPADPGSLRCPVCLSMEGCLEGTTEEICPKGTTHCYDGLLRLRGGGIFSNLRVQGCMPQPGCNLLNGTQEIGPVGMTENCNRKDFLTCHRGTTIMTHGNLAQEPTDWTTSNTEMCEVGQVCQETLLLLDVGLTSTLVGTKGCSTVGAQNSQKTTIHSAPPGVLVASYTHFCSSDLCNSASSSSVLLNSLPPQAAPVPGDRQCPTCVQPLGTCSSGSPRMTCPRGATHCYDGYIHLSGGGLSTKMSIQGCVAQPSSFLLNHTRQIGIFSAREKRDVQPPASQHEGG
RUN DESCRIPTION: flow cytometry on WBCs of healthy volunteers, anti-M13-PE (FIG. 13I)
MEASURED METRIC: percent of circulating neutrophils bound, average of donors

Some solved entries appear below for comparison.
binder="LATTHMVFSPDH (other, not shown: phage coat protein pVIII flanking the inserted peptide) [phage presenting peptide 27 (LAT)]" result=~60%
binder="SLESSPMAQLPQ (other, not shown: phage coat protein pVIII flanking the inserted peptide) [phage presenting peptide SLE]" result=~60%
binder="SSLMTTQLIATSI (peptide, not shown: large carriers) [phage presenting peptide 14 (SSL)]" result=60%
binder="PSSNLESTPLSLL (other, not shown: phage coat protein pVIII flanking the inserted peptide) [phage presenting peptide 4 (PSS)]" result=~60%
binder="KFPDLDSRRLPHMSL (other, detected with PE-conjugated anti-M13 antibody; not shown: phage coat protein pVIII flanking the inserted peptide) [phage presenting peptide 1.1 (KFP)]" result=~60%

Query: Could you share which percent of circulating neutrophils bound, average of donors value was measured for SELRSTPLLVPS (other, not shown: phage coat protein pVIII flanking the inserted peptide) [phage presenting peptide SEL] ?
Response: ~60%

Query: What value of percent of circulating neutrophils bound, average of donors has been reported for the following binder? ELVTASMPRPNN (other, not shown: phage coat protein pVIII flanking the inserted peptide) [phage presenting peptide ELV]
Response: ~60%

Query: Would you mind telling me what percent of circulating neutrophils bound, average of donors value was observed for PELDSKPYFPPL (other, not shown: phage coat protein pVIII flanking the inserted peptide) [phage presenting peptide PEL] ?
Response: ~60%

Every entry's value here was drawn from patent US20230203203A1.
